# experimental_target: T1, wildtype feline IL-31 protein (Feline_IL31_wildtype) (feline)
# T1 construct: Full length feline IL-31 with C-terminal His tag, secreted from ExpiCHO cells; also called fIL-31
# T1 chain: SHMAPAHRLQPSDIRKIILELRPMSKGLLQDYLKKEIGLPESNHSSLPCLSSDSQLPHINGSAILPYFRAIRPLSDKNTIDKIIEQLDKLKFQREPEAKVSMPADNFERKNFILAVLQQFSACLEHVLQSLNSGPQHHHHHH
# procedure_details: SPR (Biacore), IL-31 on chip, 1:1 fit
I'd appreciate it if you could supply log10 koff values for the items below.
Record value = log10 of koff given in s⁻¹.

Feline 15H05 1.3 (antibody, V domains shown, Feline heavy and kappa constant regions) VH: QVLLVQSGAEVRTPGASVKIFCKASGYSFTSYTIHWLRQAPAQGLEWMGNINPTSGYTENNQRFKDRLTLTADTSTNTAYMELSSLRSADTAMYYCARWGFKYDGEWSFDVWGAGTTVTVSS VL: EVVLTQSSAFLSRTLKEKATITCRASQGISIWLSWYQQKPNQAPKLLVKKASNLHIGAPSRFSGSGSGTDFTLTISSPEPEDAATYYCLQSQTYPLTFGGGTKLGDQ
-2.48
Feline 11E12 1.1 FW2 (antibody, V domains shown, Feline 11E12 VL1 with the mouse FW2; Feline heavy and kappa constant regions) VH: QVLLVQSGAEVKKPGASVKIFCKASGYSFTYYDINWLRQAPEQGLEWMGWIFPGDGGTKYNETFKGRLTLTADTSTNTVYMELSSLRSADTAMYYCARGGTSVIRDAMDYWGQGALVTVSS VL: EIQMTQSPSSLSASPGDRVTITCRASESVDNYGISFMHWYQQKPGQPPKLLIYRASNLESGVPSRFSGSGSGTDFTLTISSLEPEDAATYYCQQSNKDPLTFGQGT
-3.19
Feline 15H05 1.1 Y49N (antibody, V domains shown) VH: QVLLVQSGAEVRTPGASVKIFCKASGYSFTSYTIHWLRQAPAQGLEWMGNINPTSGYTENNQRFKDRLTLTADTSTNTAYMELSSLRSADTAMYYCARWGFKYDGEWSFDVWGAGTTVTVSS VL: EIQMTQSPSSLSASPGDRVTITCRASQGISIWLSWYQQKPGKVPKLLINKASNLHIGVPSRFSGSGSGTDFTLTISSLEPEDAATYYCLQSQTYPLTFGGGTKLEIK
-3.02
Feline 15H05 2.2 (antibody, V domains shown, Feline heavy and kappa constant regions) VH: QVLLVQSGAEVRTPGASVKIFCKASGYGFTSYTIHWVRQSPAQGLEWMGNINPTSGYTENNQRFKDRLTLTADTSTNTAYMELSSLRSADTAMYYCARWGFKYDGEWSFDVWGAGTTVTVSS VL: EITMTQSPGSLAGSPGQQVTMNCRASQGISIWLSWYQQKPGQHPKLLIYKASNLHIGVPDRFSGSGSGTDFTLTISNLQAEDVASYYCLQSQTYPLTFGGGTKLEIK
-2.71

Lab note: next binder to report on.
Quick one: log10 koff of Feline 15H05 VH3 mouse VL (antibody, V domains shown, Heterochimeric antibody; also called felinized 15H05 VH3 with mouse 15H05 VL (heterochimera)) VH: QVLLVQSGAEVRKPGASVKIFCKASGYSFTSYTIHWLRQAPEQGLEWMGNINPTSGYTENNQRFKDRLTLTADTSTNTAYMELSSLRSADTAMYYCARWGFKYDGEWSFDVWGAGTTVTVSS VL: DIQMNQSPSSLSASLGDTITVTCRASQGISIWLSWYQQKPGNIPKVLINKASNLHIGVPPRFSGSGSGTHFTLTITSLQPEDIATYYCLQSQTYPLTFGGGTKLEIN ?
-4.80

Each recorded value in this set is attributed to patent US20250136677A1.
